- Experimental system: Pgp (LCC6MDR cells) (Homo sapiens, UniProt P08183)
- Sequence (P08183 whole entry): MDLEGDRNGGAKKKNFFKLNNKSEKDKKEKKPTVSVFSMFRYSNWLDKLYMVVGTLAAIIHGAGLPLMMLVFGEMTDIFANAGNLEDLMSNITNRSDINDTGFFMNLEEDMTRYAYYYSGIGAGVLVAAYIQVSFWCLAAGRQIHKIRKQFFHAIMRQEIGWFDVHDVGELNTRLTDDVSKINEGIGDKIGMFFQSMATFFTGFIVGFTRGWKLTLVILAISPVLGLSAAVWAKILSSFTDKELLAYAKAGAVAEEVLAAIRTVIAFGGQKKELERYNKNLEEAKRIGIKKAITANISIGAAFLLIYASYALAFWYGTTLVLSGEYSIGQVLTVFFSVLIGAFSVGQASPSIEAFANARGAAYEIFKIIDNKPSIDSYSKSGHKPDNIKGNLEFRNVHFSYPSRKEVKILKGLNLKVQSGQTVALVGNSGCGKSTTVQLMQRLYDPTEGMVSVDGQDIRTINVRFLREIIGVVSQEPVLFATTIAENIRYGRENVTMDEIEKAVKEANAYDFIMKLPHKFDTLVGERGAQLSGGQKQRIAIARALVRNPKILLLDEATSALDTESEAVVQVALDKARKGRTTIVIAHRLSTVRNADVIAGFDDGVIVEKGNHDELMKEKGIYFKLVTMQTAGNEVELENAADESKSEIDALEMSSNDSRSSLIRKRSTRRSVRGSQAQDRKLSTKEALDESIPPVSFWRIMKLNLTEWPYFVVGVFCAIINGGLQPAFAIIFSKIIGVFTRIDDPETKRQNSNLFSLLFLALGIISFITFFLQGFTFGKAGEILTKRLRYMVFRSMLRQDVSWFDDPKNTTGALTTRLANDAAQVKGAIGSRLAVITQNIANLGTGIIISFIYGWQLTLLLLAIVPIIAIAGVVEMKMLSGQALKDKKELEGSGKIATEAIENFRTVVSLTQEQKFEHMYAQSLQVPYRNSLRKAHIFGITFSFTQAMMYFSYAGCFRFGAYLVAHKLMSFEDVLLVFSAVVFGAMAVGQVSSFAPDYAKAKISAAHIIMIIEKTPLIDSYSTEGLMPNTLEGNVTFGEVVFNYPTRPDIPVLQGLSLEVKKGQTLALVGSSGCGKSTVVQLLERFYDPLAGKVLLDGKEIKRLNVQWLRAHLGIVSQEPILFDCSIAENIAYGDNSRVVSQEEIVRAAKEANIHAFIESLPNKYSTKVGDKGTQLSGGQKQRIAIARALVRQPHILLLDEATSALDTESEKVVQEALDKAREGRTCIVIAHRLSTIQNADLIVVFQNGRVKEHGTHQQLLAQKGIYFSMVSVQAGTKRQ
- Assay details: Cell proliferation assay: Pgp-modulating activity, reversal of anticancer drug resistance in LCC6MDR cells
- Condition info: RF = (IC50 without modulator)/(IC50 with 0.5 μM modulator), paclitaxel, LCC6MDR
Assay metric: RF (Relative Fold), cpd at 0.5 μM

>>> obs_value("O=c1cc(-c2ccc(OCCOCCN(CCOCCOc3ccc(-c4cc(=O)c5ccccc5o4)cc3)Cc3cc4c(cc3Cl)OCO4)cc2)oc2ccccc12 [Compound 42f]")
"(4.8)"
>>> obs_value("O=c1cc(-c2ccc(OCCOCCN(CCO)CCOCCOc3ccc(-c4cc(=O)c5ccccc5o4)cc3)cc2)oc2ccccc12")
"(5.0)"
>>> obs_value("O=c1cc(-c2ccc(OCCOCCN(CCOCCOc3ccc(-c4cc(=O)c5ccccc5o4)cc3)Cc3cccnc3)cc2)oc2ccccc12 [Compound 64a]")
"(8.5)"
>>> obs_value("COc1cc(-c2cc(=O)c3ccccc3o2)ccc1OCCOCCNCCOCCOc1ccc(-c2cc(=O)c3ccccc3o2)cc1OC [Compound 12b]")
"(0.8)"
